src = ChEMBL document CHEMBL1201862

Measured GI50 by item
Test system: NCI-H23
Experiment: NCI tumour cell line growth inhibition, 48 h
Activity calls are given as the source filed them. Rule as the data show it: active = GI50 up to about 1.1 µM and inactive = higher.

Prompt line: Find the recorded GI50 belonging to O=[N+]([O-])c1cc(Br)cc2cc(Cl)cnc12 and report it.
Response line: > 100 µM (inactive)

Prompt line: Then CC(C)C1CC[C@@H](C)C[C@@]1(O)CC(N)=O (stereo not given in full) ?
Response line: > 100 µM (inactive)

Prompt line: Subsequent entry: COc1cc(/C=C/c2sc3ccccc3[n+]2C)ccc1N(C)C
Response line: 11.5 µM (inactive)

Prompt line: Now try CCOc1ccc2c(c1)[n+]([O-])c(-c1ccccc1)c(N)[n+]2[O-] .
Response line: 29.9 µM (inactive)

Prompt line: How about COc1ccc(Nc2nnc(CCCCCCCCc3nnc(Nc4ccc(OC)cc4)o3)o2)cc1 ?
Response line: > 100 µM (inactive)

Prompt line: Please answer likewise for c1ccc(CN2CCCN3CCN(CCCN(Cc4ccccc4)CC3)CC2)cc1
Response line: 34.1 µM (inactive)

Prompt line: Try Cc1nnc2n1-c1ccccc1N(Cc1ccccc1)CC2 next.
Response line: 60 µM (inactive)
